Target system: T1, hPRLR.mmh (soluble monomeric human PRLR) (human)
T1 construct: called soluble monomeric PRLR protein
T1 chain: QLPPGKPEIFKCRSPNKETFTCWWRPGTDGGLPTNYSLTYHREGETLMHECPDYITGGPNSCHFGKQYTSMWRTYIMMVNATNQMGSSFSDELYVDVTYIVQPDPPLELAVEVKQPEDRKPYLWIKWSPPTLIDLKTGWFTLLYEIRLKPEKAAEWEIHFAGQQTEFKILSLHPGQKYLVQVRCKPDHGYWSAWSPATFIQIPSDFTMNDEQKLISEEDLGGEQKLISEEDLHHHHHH
Method summary: SPR Biacore, 25 C, mAb capture
Measured parameter: T½ (min)

{"columns": ["Binder", "Value reported"],
 "data": [
  ["H1H6792P (antibody, human IgG1, V domains shown, Human IgG1 Fc (H1H)) VH: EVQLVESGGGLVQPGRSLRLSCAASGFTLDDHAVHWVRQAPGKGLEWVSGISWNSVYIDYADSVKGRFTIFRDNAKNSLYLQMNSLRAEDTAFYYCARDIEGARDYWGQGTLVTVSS VL: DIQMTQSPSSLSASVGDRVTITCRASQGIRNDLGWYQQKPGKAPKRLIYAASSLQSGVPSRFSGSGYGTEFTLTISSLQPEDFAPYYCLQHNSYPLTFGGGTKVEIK", 15],
  ["H1H6781P (antibody, human IgG1, V domains shown, Human IgG1 Fc (H1H)) VH: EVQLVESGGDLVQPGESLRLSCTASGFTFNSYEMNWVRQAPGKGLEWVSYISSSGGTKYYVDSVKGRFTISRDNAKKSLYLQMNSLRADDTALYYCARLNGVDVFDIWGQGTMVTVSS VL: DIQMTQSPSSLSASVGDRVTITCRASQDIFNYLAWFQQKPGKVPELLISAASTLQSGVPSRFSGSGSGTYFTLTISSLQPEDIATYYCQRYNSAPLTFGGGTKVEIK", 91],
  ["H1H6800P (antibody, human IgG1, V domains shown, Human IgG1 Fc (H1H)) VH: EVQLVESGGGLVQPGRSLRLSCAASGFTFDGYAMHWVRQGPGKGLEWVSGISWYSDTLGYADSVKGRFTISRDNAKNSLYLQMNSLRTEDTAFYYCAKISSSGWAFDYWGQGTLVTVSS VL: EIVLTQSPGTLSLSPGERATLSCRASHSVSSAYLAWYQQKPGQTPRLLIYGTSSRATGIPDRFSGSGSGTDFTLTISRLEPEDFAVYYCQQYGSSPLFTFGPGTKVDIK", 28]
]}
